Source: patent US20170119630A1

Overview of reported Result in % based on GC/MS analysis, Lower phase aromatics % across a group of compounds:
# experimental-protocol: Single fragrance migration study in biphasic compositions, GC/MS analysis
# Type: physicochemical
# condition-description: Bi phase formula high amount of water in the bottom phase (total water ~27.24%), lower phase
Could you write the number and then its unit?

INSERT INTO results (compound, reading) VALUES
  ('CC(CC=O)CCCC(C)(C)O (centres unmarked) [hydroxycitronelial]', '4.13%'),
  ('CC(C)CC1CC(C)(O)CCO1 (centres unmarked) [florosa]', '5.86%'),
  ('C=CC(C)(CCC=C(C)C)OC(C)=O (centres unmarked) [linalyl acetate]', '1.63%'),
  ('CC(=O)OC1CCCCC1C(C)(C)C (single isomer, unassigned) [agrumex major isomer, agrumex]', '0.16%'),
  ('CC1COCc2cc3c(cc21)C(C)(C)C(C)C3(C)C (stereo not drawn) [galaxolide (main peak), galaxolide]', '1.64%'),
  ('CC(C=O)Cc1ccc2c(c1)OCO2 (centres unmarked) [helional]', '4.10%');

// sample CCCCCC1C(=O)CCC1CC(=O)OC (stereo not drawn) [hedione trans, hedione] , its Result in % based on GC/MS analysis, Lower phase aromatics % was 26.10%

Value of measured Result in % based on GC/MS analysis, Lower phase aromatics % for the entry C=CC(C)(O)CCC=C(C)CC (mixture of isomers) [ethyl linalol] : 28.40%

According to the records, this compound CCCCCCC(C=O)=Cc1ccccc1 [hexylcinnamic aid, hexylcinnamic aldehyde] displays Result in % based on GC/MS analysis, Lower phase aromatics % of 0.46%

Quick note, Result in % based on GC/MS analysis, Lower phase aromatics % for CC(C=O)Cc1ccc(C(C)(C)C)cc1 (centres unmarked) [lilial] landed at 2.43%

The recorded Result in % based on GC/MS analysis, Lower phase aromatics % for CCCCCCCCCCCCCC(=O)OC(C)C [Isopropyl Myristate IPM, Isopropyl Myristate] is 0.00%

---

# experimental-protocol: Single fragrance migration study in biphasic compositions, GC/MS analysis
# Format: physicochemical
# condition-description: Bi phase formula high amount of water in the bottom phase (total water ~27.24%), upper phase
Hi! Just check whether Result in % based on GC/MS analysis, Upper phase aromatics % is below 10%. Below gives Fulfilled, equal or above gives Not fulfilled.

INSERT INTO results (molecule, class_name) VALUES
  ('CC(C)CC1CC(C)(O)CCO1 (centres unmarked) [florosa]', 'Fulfilled');

input: Does CC1COCc2cc3c(cc21)C(C)(C)C(C)C3(C)C (stereo not drawn) [galaxolide (main peak), galaxolide] have Result in % based on GC/MS analysis, Upper phase aromatics % strictly under 10%?
output: Not fulfilled

input: Does this molecule meet the criterion Result in % based on GC/MS analysis, Upper phase aromatics % < 10%? CCCCCC1C(=O)CCC1CC(=O)OC (stereo not drawn) [hedione trans, hedione]
output: Not fulfilled

input: Hello, I'm reviewing records and need to know if Result in % based on GC/MS analysis, Upper phase aromatics % of CC(=O)OC1CCCCC1C(C)(C)C (single isomer, unassigned) [agrumex major isomer, agrumex] is below 10%. Could you check?
output: Fulfilled

input: Decide: Result in % based on GC/MS analysis, Upper phase aromatics % of CC(CC=O)CCCC(C)(C)O (centres unmarked) [hydroxycitronelial] strictly below 10%?
output: Fulfilled

---

# experimental-protocol: Single fragrance migration study in biphasic compositions, GC/MS analysis
# Format: physicochemical
# condition-description: Regular EDT with Fragrance oil Giddy 11598/00
Label rule, in plain words: Result in % based on GC/MS analysis, Regular EDT aromatics % of 3% and up is 1, under 3% is 0.

Please review the following examples before continuing.
INSERT INTO measurements (compound, class_name) VALUES
  ('CCCCCCCCCCCCCC(=O)OC(C)C [Isopropyl Myristate IPM, Isopropyl Myristate]', 1),
  ('CC1COCc2cc3c(cc21)C(C)(C)C(C)C3(C)C (stereo not drawn) [galaxolide (main peak), galaxolide]', 1),
  ('CC(C=O)Cc1ccc(C(C)(C)C)cc1 (centres unmarked)', 1),
  ('C=CC(C)(O)CCC=C(C)CC (mixture of isomers)', 1);

input: Please tell me: is the compound CCCCCC1C(=O)CCC1CC(=O)OC (stereo not drawn) [hedione trans, hedione] at or over 3% in terms of Result in % based on GC/MS analysis, Regular EDT aromatics %?
output: 1

input: Confirm if Result in % based on GC/MS analysis, Regular EDT aromatics % reported for the compound CC(CC=O)CCCC(C)(C)O (centres unmarked) [hydroxycitronelial] is 3% or above.
output: 0

input: Quick check, Result in % based on GC/MS analysis, Regular EDT aromatics % >= 3%? CCCCCCC(C=O)=Cc1ccccc1
output: 0

---

# experimental-protocol: Single fragrance migration study in biphasic compositions, GC/MS analysis
# Format: physicochemical
# condition-description: Bi phase formula low amount of water in the bottom phase (total water ~7.4%), lower phase
quantity-kind: Result in % based on GC/MS analysis, Lower phase aromatics %

Below, each entry is followed by its recorded Result in % based on GC/MS analysis, Lower phase aromatics % result.
INSERT INTO measurements (compound, reading) VALUES
  ('CC(C=O)Cc1ccc(C(C)(C)C)cc1 (centres unmarked)', '4.90%'),
  ('CCCCCCCCCCCCCC(=O)OC(C)C [Isopropyl Myristate IPM, Isopropyl Myristate]', '4.96%'),
  ('C=CC(C)(CCC=C(C)C)OC(C)=O (centres unmarked) [linalyl acetate]', '3.52%'),
  ('CCCCCC1C(=O)CCC1CC(=O)OC (stereo not drawn) [hedione trans, hedione]', '18.40%'),
  ('CC1COCc2cc3c(cc21)C(C)(C)C(C)C3(C)C (stereo not drawn) [galaxolide (main peak), galaxolide]', '15.47%'),
  ('CC(C=O)Cc1ccc2c(c1)OCO2 (centres unmarked)', '2.03%'),
  ('CC(C)CC1CC(C)(O)CCO1 (centres unmarked)', '5.12%');

Moving on to the next compound.
// Result in % based on GC/MS analysis, Lower phase aromatics % value for CC(=O)OC1CCCCC1C(C)(C)C (single isomer, unassigned) [agrumex major isomer, agrumex] : 0.40%

---

# experimental-protocol: Single fragrance migration study in biphasic compositions, GC/MS analysis
# Type: physicochemical
# condition-description: Regular EDT with Fragrance oil Giddy 11598/00
Examples of compounds with documented Result in % based on GC/MS analysis, Regular EDT aromatics % follow.
The figure you give is taken to be in %; do not add the unit.

Please review the following examples before continuing.
INSERT INTO results (compound, reading) VALUES
  ('CC(C)CC1CC(C)(O)CCO1 (stereo not shown)', 3.82),
  ('CC(C=O)Cc1ccc2c(c1)OCO2 (stereo not shown)', 1.32),
  ('C=CC(C)(CCC=C(C)C)OC(C)=O (stereo not shown) [linalyl acetate]', 3.37);

Here is another compound to look at.
// field: Result in % based on GC/MS analysis, Regular EDT aromatics %; key: CC(=O)OC1CCCCC1C(C)(C)C (single isomer, unassigned) [agrumex major isomer, agrumex] ; value = 0.41
